Data credit: patent US4680304A

- assayMethodText: Chick growth study
- Type: in vivo, broiler chicks
- measurementContext: 50 ppm in feed, 17 day
- Description: 512 day old broiler chicks, selected for weight, health and sex, are housed in an environmentally controlled room with temperature at 37.7° and humidity at 40%. Chicks are fed ad libitum. Water is offered ad libitum. A corn or, preferably rye, basal ration is fed during the acclimation period (days 1 and 2). It is, then, mixed with the compound under test or used as a control on days 3-17. Either 8 or 16 chicks are used for each test or control group.
The following compounds are shown together with reported Weight (17 day) values.

// below: answered compounds
compound: NC(=NO)c1ccccn1 [2-Amidoximopyridine]
Weight (17 day): 103.0 % of Control
//
compound: c1ccc(C2=NCCN2)nc1 [2-(2-Pyridyl)-imidazoline]
Weight (17 day): 106.2 % of Control
//
compound: CC1(C)NN=C(c2ccccn2)N1
Weight (17 day): 97.7 % of Control

For the next question, use this compound.
Reported Weight (17 day), compound COC(=O)C1(C)NN=C(c2ccccn2)N1 (stereo not shown) : ____
108.1 % of Control
